- Tested on: P388 leukemia ip, CD2F1 mice, survival T/C
- assay.details: NCI In Vivo Anticancer Drug Screen. Data for tumor model P388 Leukemia (intraperitoneal) in CD2F1 (CDF1) mice
- measurement.setup: endpoint: median survival time; dose: 12.5 mg/kg/injection; schedule: Q01DX009 (ip); vehicle: saline with Tween-80; higher = longer survival
Inconclusive results and toxic doses are left out.
value.type: T/C

So what does the record say about T/C for COc1ccc(C2=NC(c3ccccc3)NC(c3ccccc3)/C2=C/c2ccccc2)cc1 (centres undefined) ? 100 % of control

Item Cc1c2oc3c(C)ccc(C(=O)OCCN4CCOCC4)c3nc-2c(C(=O)OCCN2CCOCC2)c(N)c1=O has what recorded T/C? 119 % of control

Param item = Oc1cc(CN2CCOCC2)c(O)cc1CN1CCOCC1 ; retrieve measured T/C. 113 % of control

Entry c1ccc2c(c1)cc1c3nncn3ncn21 : reported T/C = ? 100 % of control

Field request: T/C | item: Nc1ccc2cc3c(nc2n1)[nH]c1ccccc13 102 % of control

T/C lookup needed for COc1ccc(/C=C/C(=O)c2ccc3c(c2)OCO3)cc1OC , thanks. 98 % of control

// query T/C value for entry O=c1ccc2nc3ccccc3sc-2c1 90 % of control

Give the measured T/C of CSC(=S)N/N=C(/C)CC(C)C . 105 % of control

Fill blank: measured T/C of the molecule Cc1ccc2c(ccc(/C=C/c3ccc(O)c4ncccc34)[n+]2C)c1 is ____. 116 % of control

// returns reported T/C for input Nc1cc(=O)[nH]c(N)n1 106 % of control

// T/C lookup, key: CN1CC2(c3ccccc3)CN(C)CC(c3ccccc3)(C1)C2=O 86 % of control

If you can, please state the reported T/C value of CC1(C)N=C(N)N=C(N)N1c1ccc(CCC(=O)Nc2ccc(S(=O)(=O)F)cc2)c(Cl)c1 . 187 % of control

Requested read-out: T/C. Entry: O=P1(N(CCCl)CCCl)Nc2cc3ccccc3cc2N1 99 % of control

T/C lookup needed for Fc1ccc(NC(=S)S)cc1 , thanks. 104 % of control

* * *

- System: P388 leukemia ip, CD2F1 mice, survival T/C
- assay.details: NCI In Vivo Anticancer Drug Screen. Data for tumor model P388 Leukemia (intraperitoneal) in CD2F1 (CDF1) mice
- measurement.setup: endpoint: median survival time; dose: 400.0 mg/kg/injection; schedule: Q04DX003 (ip); vehicle: saline; higher = longer survival
Inconclusive results and toxic doses are left out.
value.type: T/C

What T/C value was documented for this compound, Cc1cc(Cl)nc2ccc([N+](=O)[O-])cc12 ? 91 % of control

Item under review: Cc1cnc(C)n2ncnc12 . Reported T/C? 88 % of control

Tell me the measured T/C of CN(C)C(=S)c1ccccc1NS(=O)(=O)c1ccccc1 , please. 97 % of control

Recorded T/C of c1cc2cc(-c3cc4ccc(C5=NCCN5)cc4[nH]3)[nH]c2cc1C1=NCCN1 , please. 159 % of control

Name the reported T/C value associated with the compound O=C(NCCO)Nc1ccccc1F 104 % of control

Sample NC(=O)CCCCO — what was its T/C? 109 % of control

# lookup: T/C of C[N+]1=CN(S(=O)(=O)C2C=CC=CC=C2)CC1(C)C 97 % of control

I have this compound here, COc1ccc(S(=O)(=O)NC(=O)c2ccccc2)cc1 , and I need its recorded T/C. 101 % of control

Any idea what T/C was measured for O=C(O)COCC(F)(F)C(F)(F)C(F)(F)COCC(=O)O ? 100 % of control

Find the recorded T/C belonging to CCOC(=O)CN1CCC(C(=O)OC)CC1 and report it. 100 % of control

Could you share which T/C value was measured for CS(=O)(=O)/C=C/C([N+](=O)[O-])[N+](=O)[O-] ? 92 % of control

What value of T/C has been reported for the following compound? COc1cc2c(cc1OC)C(C1c3cc(OC)c(OC)cc3-c3c(OC)c(OC)cc4c3C1N(C)CC4)C1c3c(cc(OC)c(OC)c3-2)CCN1C (stereo not drawn) 97 % of control

What value of T/C has been recorded for this entry: NNC(=O)CC(N)=O 100 % of control

* * *

- Test system: P388 leukemia ip, CD2F1 mice, survival T/C
- assay.details: NCI In Vivo Anticancer Drug Screen. Data for tumor model P388 Leukemia (intraperitoneal) in CD2F1 (CDF1) mice
- measurement.setup: endpoint: median survival time; dose: 6.25 mg/kg/injection; schedule: Q01DX005 (ip); vehicle: saline; higher = longer survival
Toxic doses and inconclusive results are not listed.
value.type: T/C

Requested read-out: T/C. Entry: CN1C2C=C(c3ccc(Cl)cc3)CC1CC2 (stereo not given) 103 % of control

Sample CC(C)=C(Nc1ccccc1)NC(C)C — what was its T/C? 103 % of control

Which value of T/C has been reported for COc1cc(NCCCC2CCCCN2)c2ncccc2c1OC (stereo not given) in the records? 103 % of control

Consider the compound CCCCN(CCCC)C(=N)c1ccc(OC)c(OC)c1 and give its measured T/C. 98 % of control

# query: T/C of entry CC(C)(C)NC1=NCCNC(c2ccccc2)=C1 98 % of control

* * *

Provide the recorded T/C for the entries that follow.
- Test system: P388 leukemia ip, CD2F1 mice, survival T/C
- assay.details: NCI In Vivo Anticancer Drug Screen. Data for tumor model P388 Leukemia (intraperitoneal) in CD2F1 (CDF1) mice
- measurement.setup: endpoint: median survival time; dose: 50.0 mg/kg/injection; schedule: Q01DX005 (ip); vehicle: Klucel + Tween-80; higher = longer survival
- Method: The antitumor activity of compounds was measured in mice bearing transplantable tumors. Survival or tumor size were measured and the results are expressed as the measurement made in the treated group (T) divided by the measurement made in the vehicle treated control group (C). The tumor model used in this assay is P388 Leukemia (intraperitoneal) in CD2F1 (CDF1) mice
Toxic doses and inconclusive results are not listed.

Param item = O=C(/C=C/c1ccco1)C1C(=O)CCC1=O ; retrieve measured T/C. 98 % of control

Quick one: T/C of O=C(NC(c1ccccc1)N1CCOCC1)c1ccccc1 (centres undefined) ? 108 % of control

Would you kindly share the measured T/C for C/C(N)=N/OCc1ccccc1 ? 98 % of control

# get_value(readout='T/C', item= Nc1cc2cc([N+](=O)[O-])ccc2oc1=O ) 96 % of control

* * *

Exercise: for every item that follows, state its recorded T/C.
- Tested on: P388 leukemia ip, CD2F1 mice, survival T/C
- assay.details: NCI In Vivo Anticancer Drug Screen. Data for tumor model P388 Leukemia (intraperitoneal) in CD2F1 (CDF1) mice
- measurement.setup: endpoint: median survival time; dose: 25.0 mg/kg/injection; schedule: Q01DX005 (ip); vehicle: Klucel (hydroxypropylcellulose) (HPC); higher = longer survival
- Description: The antitumor activity of compounds was measured in mice bearing transplantable tumors. Survival or tumor size were measured and the results are expressed as the measurement made in the treated group (T) divided by the measurement made in the vehicle treated control group (C). The tumor model used in this assay is P388 Leukemia (intraperitoneal) in CD2F1 (CDF1) mice
Toxic doses and inconclusive results are not listed. Peptide text beside a SMILES is read from it. * marks the point of attachment. Trt = c1ccc(C(c2ccccc2)(c2ccccc2)*)cc1; Cbz = O=C(OCc1ccccc1)*; Bn = c1ccc(C*)cc1; βAla = NCCC(=O)O

Suppose we examine the compound COc1cc2c(c(C(C)(C)C)c1)OC1(O)C2=CC(=O)C=C1C(C)(C)C (centres undefined) ; what T/C value has been reported? 114 % of control

Give its T/C value. Item: Oc1ccccc1-c1cc(-c2ccccc2)nc(NCCCCNc2nc(-c3ccccc3)cc(-c3ccccc3O)n2)n1 97 % of control

T/C for CC(=O)O[C@@H]1C[C@@]2(C)C(CC(=O)[C@@H](C)[C@@H]2CC(=O)c2ccoc2)[C@@H](CO)[C@@H]1O (some centres undefined) ? 100 % of control

Would you mind telling me what T/C value was observed for CS(=O)(=O)/C=C/COC(=O)/C=C/c1ccccc1 ? 102 % of control

Given the compound NC(C(=O)O)/C1=C/CCCCCC1 (centres undefined) , what is its reported T/C? 106 % of control

# query: T/C of entry CN1C2C=C(c3ccc(Cl)cc3)CC1CC2 (centres undefined) 109 % of control

// T/C lookup, key: COC(=O)C(CSC(c1ccccc1)(c1ccccc1)c1ccccc1)NC(=O)C(CSCc1ccccc1)NC(=O)CCNC(=O)OCc1ccccc1 (centres undefined) ({Cbz-βAla}-Cys(Bn)-Cys(Trt)-OMe; configuration not given here) 102 % of control

Quick one: T/C for NNP(=S)(NN)Oc1ccccc1 ? 105 % of control

Reported T/C for CC(C)CC(NC(=O)C(CSCc1ccccc1)NC(=O)OCc1ccccc1)C(N)=O (centres undefined) (Cbz-Cys(Bn)-Leu-NH2; configuration not given here) : what is it? 86 % of control

Given the entry CNc1[nH]c(=O)[nH]c(=O)c1[N+](=O)[O-] , report its measured T/C. 105 % of control

Request the reported T/C associated with Cc1cc(N/N=C/c2ccccn2)nc2ccccc12 112 % of control

# query: T/C of entry CCCCN(c1ccc(Br)cc1)c1nc(N)nc(N)c1N=O 103 % of control

If you can, please state the reported T/C value of CC(C)C1=C(O)C2=C(C(=O)C1=O)C1(C)CCCC(C)(C)C1C(O)C2OC=O (centres undefined) . 109 % of control

Bench note: what T/C did CN(C)C1C(=O)C(C(=O)NC[N+]23CCO[B-]2(c2ccc(Cl)cc2)OCC3)=C(O)C2(O)C(=O)C3=C(O)c4c(O)cccc4C(C)(O)C3CC12 (centres undefined) show? 111 % of control
